# SYSTEM UNDER TEST: Phosphatidylinositol 4,5-bisphosphate 3-kinase catalytic subunit gamma isoform (Homo sapiens, UniProt P48736)
# Sequence (P48736 whole entry, canonical isoform): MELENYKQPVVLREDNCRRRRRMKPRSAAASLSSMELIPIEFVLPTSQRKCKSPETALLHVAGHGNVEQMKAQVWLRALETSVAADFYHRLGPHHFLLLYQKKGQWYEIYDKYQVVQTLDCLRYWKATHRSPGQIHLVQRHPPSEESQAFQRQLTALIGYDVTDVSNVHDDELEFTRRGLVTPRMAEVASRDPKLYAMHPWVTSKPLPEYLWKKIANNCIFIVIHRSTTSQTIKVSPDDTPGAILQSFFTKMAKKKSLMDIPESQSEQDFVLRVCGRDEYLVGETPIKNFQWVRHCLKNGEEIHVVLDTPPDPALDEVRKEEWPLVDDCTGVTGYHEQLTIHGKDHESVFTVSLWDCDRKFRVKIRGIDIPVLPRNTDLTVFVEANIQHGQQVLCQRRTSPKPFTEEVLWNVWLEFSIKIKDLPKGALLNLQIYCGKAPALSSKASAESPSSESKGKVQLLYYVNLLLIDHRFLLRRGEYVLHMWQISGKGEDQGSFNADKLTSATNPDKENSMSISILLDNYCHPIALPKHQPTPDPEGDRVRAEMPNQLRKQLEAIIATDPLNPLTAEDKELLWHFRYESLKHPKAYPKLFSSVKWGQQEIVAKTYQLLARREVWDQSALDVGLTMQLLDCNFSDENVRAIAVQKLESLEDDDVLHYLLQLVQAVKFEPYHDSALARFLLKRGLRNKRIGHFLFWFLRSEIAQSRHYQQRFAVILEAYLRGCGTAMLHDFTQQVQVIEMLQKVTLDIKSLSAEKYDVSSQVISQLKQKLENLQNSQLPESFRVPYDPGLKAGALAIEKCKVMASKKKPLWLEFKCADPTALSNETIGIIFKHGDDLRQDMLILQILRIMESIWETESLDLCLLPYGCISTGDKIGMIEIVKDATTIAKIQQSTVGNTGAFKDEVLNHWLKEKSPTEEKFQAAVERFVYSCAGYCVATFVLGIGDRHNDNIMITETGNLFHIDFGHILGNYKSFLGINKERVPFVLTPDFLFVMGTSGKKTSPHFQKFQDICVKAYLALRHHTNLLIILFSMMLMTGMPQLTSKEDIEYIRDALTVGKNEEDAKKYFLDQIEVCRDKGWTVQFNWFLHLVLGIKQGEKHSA
# METHOD: Inhibition of human PI3K-gamma assessed as inhibition of […] after 1 hr by TR-FRET analysis
pIC50: −log10 of the molar value.
EXPERIMENTAL ENDPOINT: pIC50

>>> measured_result("COc1ccc(-n2c(=O)n(C)c3cnc4ccc(-c5ccncc5)cc4c32)cc1")
6.50
>>> measured_result("Cn1cc(-c2ccc3ncc4c(c3c2)n(-c2ccc(C(C)(C)C#N)cc2)c(=O)n4C)cn1")
6.90
>>> measured_result("Cn1c(=O)n(-c2ccc(C(C)(C)C#N)cc2)c2c3ccccc3ncc21")
5.70
>>> measured_result("Cc1ccc(-n2c(=O)n(C)c3cnc4ccc(-c5ccncc5)cc4c32)cc1")
6.60

Taken from ChEMBL document CHEMBL3286093.
